- Test system: 519858-162-T-J1-PDC complex spheroid viability
- Method summary: Anticancer human tumor 519858-162-T-J1-PDC patient-derived colon adenocarcinoma cell line growth inhibition [GQUAD]
- Run parameters: second compound 0.1 µM; first compound 0.1 µM; stronger effect = lower value
Measure: viability, T/C (%)
Please reply with the bare figure in % and do not write the unit itself.

Some compounds with recorded viability, T/C:
Compound	Target system	viability, T/C [%]
COc1ncnc(C2CC2)c1-c1ncc2cnn(Cc3ccc(-c4nc(C(F)(F)F)cn4C(C)C)cc3)c2n1 + Cc1cnc(CNC(=O)c2c(=O)c3ccc(N4CCCN(C)CC4)nc3n3c2sc2ccccc23)cn1	519858-162-T-J1-PDC complex spheroid viability	74.8
C=CCn1c(=O)c2cnc(Nc3ccc(N4CCN(C)CC4)cc3)nc2n1-c1cccc(C(C)(C)O)n1 + CN(C)c1ccc(Nc2c3ccc(NC(=O)CCN4CCCC4)cc3nc3cc(NC(=O)CCN4CCCC4)ccc23)cc1	519858-162-T-J1-PDC complex spheroid viability	86.8

Now for a further compound.
Given the compound COc1ccc([C@@H](O)c2cc(-c3ncnc4cc(N5CCOCC5)ccc34)c(F)cc2Cl)nn1 + Cc1[nH]c2ccc(F)cc2c1-c1nc2c3cccnc3c3ncccc3c2[nH]1 , what is its reported viability, T/C?
92.8

###

- System: 519858-162-T-J1-PDC complex spheroid viability
- Method summary: Anticancer human tumor 519858-162-T-J1-PDC cell line growth inhibition [GQUAD];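 further: spheroids exposed to compounds for 7 days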;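 on viability, T/C: 100% = DMSO vehicle control viability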
- Run parameters: second compound 3.16 µM; first compound 3.16 µM; stronger effect = lower value
Measure: viability, T/C (%)
Report the figure in % without appending any unit label.

Compound	Measure	Measured result
COc1ccc([C@@H](O)c2cc(-c3ncnc4cc(N5CCOCC5)ccc34)c(F)cc2Cl)nn1 + Cc1[nH]c2ccc(F)cc2c1-c1nc2c3cccnc3c3ncccc3c2[nH]1	viability, T/C	65.5
CC1COCCN1c1cc(C2(S(C)(=N)=O)CC2)nc(-c2ccnc3[nH]ccc23)n1 (stereo not given) + Cc1cnc(CNC(=O)c2c(=O)c3ccc(N4CCCN(C)CC4)nc3n3c2sc2ccccc23)cn1	viability, T/C	51.4
COc1cccc2c1C(=O)c1c(O)c3c(c(O)c1C2=O)CC(O)(C(=O)CO)CC3OC1CC(N)C(O)C(C)O1 (stereo not given) + Cc1cnc(CNC(=O)c2c(=O)c3ccc(N4CCCN(C)CC4)nc3n3c2sc2ccccc23)cn1	viability, T/C	55.7
COc1cc(C2c3cc4c(cc3C(OC3OC5COC(C)OC5C(O)C3O)C3COC(=O)C23)OCO4)cc(OC)c1O (stereo not given) + Cc1cnc(CNC(=O)c2c(=O)c3ccc(N4CCCN(C)CC4)nc3n3c2sc2ccccc23)cn1	viability, T/C	49.5

Return reported viability, T/C; argument: COc1cc(C2c3cc4c(cc3C(OC3OC5COC(C)OC5C(O)C3O)C3COC(=O)C23)OCO4)cc(OC)c1O (stereo not given) + CN(C)c1ccc(Nc2c3ccc(NC(=O)CCN4CCCC4)cc3nc3cc(NC(=O)CCN4CCCC4)ccc23)cc1
101

###

- Test system: 519858-162-T-J1-PDC complex spheroid viability
- Method summary: Anticancer human tumor 519858-162-T-J1-PDC cell line growth inhibition [GQUAD];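 further: spheroids exposed to compounds for 7 days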;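 on viability, T/C: 100% = DMSO vehicle control viability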
- Run parameters: second compound 10 µM; first compound 3.16 µM; stronger effect = lower value
Measure: viability, T/C (%)
Write it as a number; the unit % goes unstated.

Hello, I am looking for reported viability, T/C with 519858-162-T-J1-PDC complex spheroid viability for CC(C)n1c(=O)n(C)c2cnc3cc(F)c(-c4ccc(OCCCN5CCCCC5)nc4)cc3c21 + Cc1[nH]c2ccc(F)cc2c1-c1nc2c3cccnc3c3ncccc3c2[nH]1 . Could you help?
54.9

What viability, T/C appears in the records for this compound with 519858-162-T-J1-PDC complex spheroid viability? O=C(c1cc(Cc2n[nH]c(=O)c3ccccc23)ccc1F)N1CCN(C(=O)C2CC2)CC1 + Cc1cnc(CNC(=O)c2c(=O)c3ccc(N4CCCN(C)CC4)nc3n3c2sc2ccccc23)cn1
49

Return viability, T/C measured with 519858-162-T-J1-PDC complex spheroid viability given this compound: O=c1[nH]cc(F)c(=O)[nH]1 + Cc1[nH]c2ccc(F)cc2c1-c1nc2c3cccnc3c3ncccc3c2[nH]1
83.1

###

- Test system: 519858-162-T-J1-PDC complex spheroid viability
- Method summary: Anticancer human tumor 519858-162-T-J1-PDC cell line growth inhibition [GQUAD];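 further: spheroids exposed to compounds for 7 days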;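 on viability, T/C: 100% = DMSO vehicle control viability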
- Run parameters: second compound 10 µM; first compound 3.16 µM; stronger effect = lower value
- Description: DNA G-quadruplex Stabilizer Agents in Combinations in Complex Spheroids A high-throughput screen of multi-cell type tumor spheroids was designed to identify active combinations of DNA G-quadruplex stabilizer agents and targeted small molecules. […] Compounds. […] If the clinical Cmax for an agent had not been determined, the highest concentration tested was 10 microM. […]
Measure: viability, T/C (%)
The answer is to be given in %; state only the numeric part.

In the examples that follow, each entry is paired with its recorded viability, T/C.
Compound	viability, T/C / %
COc1ncnc(C2CC2)c1-c1ncc2cnn(Cc3ccc(-c4nc(C(F)(F)F)cn4C(C)C)cc3)c2n1 + CN(C)c1ccc(Nc2c3ccc(NC(=O)CCN4CCCC4)cc3nc3cc(NC(=O)CCN4CCCC4)ccc23)cc1	51.7
C=CC(=O)N1CCN(c2nc(=O)n(-c3c(C)ccnc3C(C)C)c3nc(-c4c(O)cccc4F)c(F)cc23)C(C)C1 (stereo unspecified) + Cc1[nH]c2ccc(F)cc2c1-c1nc2c3cccnc3c3ncccc3c2[nH]1	52.5
O=C(NO)c1cnc(N2CCN(S(=O)(=O)c3ccc4ccccc4c3)CC2)nc1 + Cc1cnc(CNC(=O)c2c(=O)c3ccc(N4CCCN(C)CC4)nc3n3c2sc2ccccc23)cn1	3.74
C=CC(=O)N1CCN(c2nc(=O)n(-c3c(C)ccnc3C(C)C)c3nc(-c4c(O)cccc4F)c(F)cc23)C(C)C1 (stereo unspecified) + CN(C)c1ccc(Nc2c3ccc(NC(=O)CCN4CCCC4)cc3nc3cc(NC(=O)CCN4CCCC4)ccc23)cc1	49.2
CC(=O)O[C@H]1C(=O)[C@@]2(C)[C@H]([C@H](OC(=O)c3ccccc3)[C@]3(O)C[C@H](OC(=O)[C@H](O)[C@@H](NC(=O)c4ccccc4)c4ccccc4)C(C)=C1C3(C)C)[C@]1(OC(C)=O)CO[C@@H]1C[C@@H]2O + Cc1[nH]c2ccc(F)cc2c1-c1nc2c3cccnc3c3ncccc3c2[nH]1	75.5
COc1cccc2c1C(=O)c1c(O)c3c(c(O)c1C2=O)CC(O)(C(=O)CO)CC3OC1CC(N)C(O)C(C)O1 (stereo unspecified) + Cc1[nH]c2ccc(F)cc2c1-c1nc2c3cccnc3c3ncccc3c2[nH]1	44
CC1COCCN1c1cc(C2(O)CC3CCC(C2)O3)c2cnn(-c3ccn[nH]3)c2n1 (stereo unspecified) + CN(C)c1ccc(Nc2c3ccc(NC(=O)CCN4CCCC4)cc3nc3cc(NC(=O)CCN4CCCC4)ccc23)cc1	76.5
C#Cc1c(F)ccc2cc(O)cc(-c3ncc4c(N5CC6CCC(C5)N6)nc(OCC56CCCN5CC(F)C6)nc4c3F)c12 (stereo unspecified) + Cc1[nH]c2ccc(F)cc2c1-c1nc2c3cccnc3c3ncccc3c2[nH]1	52.3
C=CCn1c(=O)c2cnc(Nc3ccc(N4CCN(C)CC4)cc3)nc2n1-c1cccc(C(C)(C)O)n1 + Cc1cnc(CNC(=O)c2c(=O)c3ccc(N4CCCN(C)CC4)nc3n3c2sc2ccccc23)cn1	32.3
COc1cc(C2c3cc4c(cc3C(OC3OC5COC(C)OC5C(O)C3O)C3COC(=O)C23)OCO4)cc(OC)c1O (stereo unspecified) + CN(C)c1ccc(Nc2c3ccc(NC(=O)CCN4CCCC4)cc3nc3cc(NC(=O)CCN4CCCC4)ccc23)cc1	74.8

Switching to the query record.
Consider the compound shown here: COc1cccc2c1C(=O)c1c(O)c3c(c(O)c1C2=O)CC(O)(C(=O)CO)CC3OC1CC(N)C(O)C(C)O1 (stereo unspecified) + CN(C)c1ccc(Nc2c3ccc(NC(=O)CCN4CCCC4)cc3nc3cc(NC(=O)CCN4CCCC4)ccc23)cc1 What is its recorded viability, T/C?
50.3

###

- Test system: 519858-162-T-J1-PDC complex spheroid viability
- Method summary: Anticancer human tumor 519858-162-T-J1-PDC cell line growth inhibition [GQUAD];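 further: spheroids exposed to compounds for 7 days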
- Run parameters: curve of first compound; second compound 1 µM
pIC50: −log10 of the molar value.
Recorded pIC50 values for a group of compounds are listed next.

Please review the following examples before continuing.
Compound	pIC50
O=C(NO)c1cnc(N2CCN(S(=O)(=O)c3ccc4ccccc4c3)CC2)nc1 + Cc1cnc(CNC(=O)c2c(=O)c3ccc(N4CCCN(C)CC4)nc3n3c2sc2ccccc23)cn1	6.76
O=C(c1cc(Cc2n[nH]c(=O)c3ccccc23)ccc1F)N1CCN(C(=O)C2CC2)CC1 + Cc1[nH]c2ccc(F)cc2c1-c1nc2c3cccnc3c3ncccc3c2[nH]1	< 5.00

Proceeding to the next compound to report its pIC50.
Please state recorded pIC50 (tested on 519858-162-T-J1-PDC complex spheroid viability) of COc1cccc2c1C(=O)c1c(O)c3c(c(O)c1C2=O)CC(O)(C(=O)CO)CC3OC1CC(N)C(O)C(C)O1 (stereo not drawn) + Cc1cnc(CNC(=O)c2c(=O)c3ccc(N4CCCN(C)CC4)nc3n3c2sc2ccccc23)cn1
< 5.00
